molecular target: Dopamine 1 receptor (Homo sapiens, UniProt P21728)
Sequence (P21728 whole entry): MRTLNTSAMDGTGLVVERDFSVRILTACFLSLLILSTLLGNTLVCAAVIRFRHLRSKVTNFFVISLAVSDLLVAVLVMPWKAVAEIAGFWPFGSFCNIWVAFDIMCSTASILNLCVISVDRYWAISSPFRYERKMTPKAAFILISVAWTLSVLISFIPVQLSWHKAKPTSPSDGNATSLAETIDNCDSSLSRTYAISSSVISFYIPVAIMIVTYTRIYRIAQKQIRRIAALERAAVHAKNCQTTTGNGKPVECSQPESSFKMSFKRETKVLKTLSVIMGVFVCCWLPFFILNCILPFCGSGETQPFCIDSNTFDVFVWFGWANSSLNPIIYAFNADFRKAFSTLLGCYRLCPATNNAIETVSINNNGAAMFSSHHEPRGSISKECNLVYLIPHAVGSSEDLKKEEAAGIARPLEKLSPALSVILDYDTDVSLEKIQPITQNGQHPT
property_label: Ki

stdin: I'm curious: which Ki was measured for CCc1c(C)[nH]c2c1C(=O)C(CCN1CCOCC1)CC2 (stereo not shown) tested on Dopamine 1 receptor (Homo sapiens, UniProt P21728)?
stdout: 2140 nM

====

The next entries give measured Ki for Dopamine 2 receptor (Homo sapiens).

CCc1c(C)[nH]c2c1C(=O)C(CCN1CCN(c3ccccc3OC)CC1)CC2 (centres unmarked) [Compound 2]: 28.2 nM

Next:
stdin: I'm curious: which Ki was measured for CCc1c(C)[nH]c2c1C(=O)C(CCN1CCOCC1)CC2 (centres unmarked) [Compound 1] tested on Dopamine 2 receptor (Homo sapiens)?
stdout: 589 nM

Source listed as patent US6897212B2.
